Target Of Assay: organic anion transporting polypeptide 1B1 (OATP1B1) (Homo sapiens (Human))
Sequence (Q9Y6L6 whole entry): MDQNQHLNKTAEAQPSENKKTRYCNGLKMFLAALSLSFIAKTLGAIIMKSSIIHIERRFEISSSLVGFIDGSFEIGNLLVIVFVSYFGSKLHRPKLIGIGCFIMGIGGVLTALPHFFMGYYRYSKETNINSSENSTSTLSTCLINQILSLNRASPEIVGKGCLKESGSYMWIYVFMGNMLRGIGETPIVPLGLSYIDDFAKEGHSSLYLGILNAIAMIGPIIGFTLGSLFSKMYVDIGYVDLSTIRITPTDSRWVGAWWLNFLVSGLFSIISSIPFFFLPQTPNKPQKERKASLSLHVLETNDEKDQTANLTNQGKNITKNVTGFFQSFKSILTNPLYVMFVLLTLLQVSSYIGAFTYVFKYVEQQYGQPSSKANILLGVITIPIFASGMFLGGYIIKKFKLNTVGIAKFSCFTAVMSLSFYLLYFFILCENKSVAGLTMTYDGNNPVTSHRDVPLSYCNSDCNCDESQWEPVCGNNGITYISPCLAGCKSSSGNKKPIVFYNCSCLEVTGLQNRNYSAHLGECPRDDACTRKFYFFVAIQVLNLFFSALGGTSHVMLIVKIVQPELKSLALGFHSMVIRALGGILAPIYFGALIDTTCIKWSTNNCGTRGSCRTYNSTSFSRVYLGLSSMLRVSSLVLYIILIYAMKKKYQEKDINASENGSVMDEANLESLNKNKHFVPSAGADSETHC
Assay Info: OATP assay in CHO-OATP1B1 cells;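 note: inhibition of probe substrate uptake into the cells, ten minutes exposure, accumulated substrate read by fluorescence once cells were lysed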
Starred links: 1 amine or outer side, 2 acyl side, 3 side chain; linkers in the order of their positions; H or OH if unused. Non-standard residues stand in square brackets, D forms with d. Residues, ends and D or L forms follow the SMILES beside them. X10 = C[C@H](CCCOC(=O)NC1CCN(C)CC1)[C@@H](C(=O)[*:2])N(C)[*:1]; X16 = C[C@H](CN1CCN(S(C)(=O)=O)CC1)[C@@H](C(=O)[*:2])N(C)[*:1]; X28 = CCN1CCN(C(=O)OC[C@H](C)[C@@H](C(=O)[*:2])N(C)[*:1])CC1; X36 = C[C@H](COCCN(C)CC(F)(F)F)[C@@H](C(=O)[*:2])N(C)[*:1]; X52 = C[C@H](CCC(=O)N1CCOCC1)[C@@H](C(=O)[*:2])N(C)[*:1]; X50 = C[C@H](CN1CCNC(=O)C1)[C@@H](C(=O)[*:2])N(C)[*:1]; X14 = C[C@H](CN1CCN(C)CC1)[C@@H](C(=O)[*:2])N(C)[*:1]; MeBmt = C/C=C/C[C@@H](C)[C@@H](O)[C@H](NC)C(=O)O; NMeL = CN[C@@H](CC(C)C)C(=O)O; NMeV = CN[C@H](C(=O)O)C(C)C; dNMeA = CN[C@H](C)C(=O)O; Abu = CC[C@H](N)C(=O)O

Compound: C/C=C/C[C@@H](C)[C@@H](O)[C@H]1C(=O)N[C@@H](CC)C(=O)N(C)[C@H](C)C(=O)N(C)[C@@H]([C@H](C)CN2CCN(C)CC2)C(=O)N[C@@H](C(C)C)C(=O)N(C)[C@@H](CC(C)C)C(=O)N[C@@H](C)C(=O)N[C@H](C)C(=O)N(C)[C@@H](CC(C)C)C(=O)N(C)[C@@H](CC(C)C)C(=O)N(C)[C@@H](C(C)C)C(=O)N1C [Compound 2.5.29] (cyclo(A[dA][NMeL][NMeL][NMeV][MeBmt][Abu][dNMeA][X14]V[NMeL]))
IC50: 7.9 µM

Compound: C/C=C/C[C@@H](C)[C@@H](O)[C@H]1C(=O)N[C@@H](CC)C(=O)N(C)[C@H](C)C(=O)N(C)[C@@H]([C@H](C)CCCOC(=O)NC2CCN(C)CC2)C(=O)N[C@@H](C(C)C)C(=O)N(C)[C@@H](CC(C)C)C(=O)N[C@@H](C)C(=O)N[C@H](C)C(=O)N(C)[C@@H](CC(C)C)C(=O)N(C)[C@@H](CC(C)C)C(=O)N(C)[C@@H](C(C)C)C(=O)N1C [Compound 2.19.8] (cyclo(A[dA][NMeL][NMeL][NMeV][MeBmt][Abu][dNMeA][X10]V[NMeL]))
IC50: 7.8 µM

Compound: C/C=C/C[C@@H](C)[C@@H](O)[C@H]1C(=O)N[C@@H](CC)C(=O)N(C)[C@H](C)C(=O)N(C)[C@@H]([C@H](C)CO[C@H]2CCOC2)C(=O)N[C@@H](C(C)C)C(=O)N(C)[C@@H](CC(C)C)C(=O)N[C@@H](C)C(=O)N[C@H](C)C(=O)N(C)[C@@H](CC(C)C)C(=O)N(C)[C@@H](CC(C)C)C(=O)N(C)[C@@H](C(C)C)C(=O)N1C (stereo in doubt)
IC50: 1.9 µM

Compound: C/C=C/C[C@@H](C)[C@@H](O)[C@H]1C(=O)N[C@@H](CC)C(=O)N(C)[C@H](C)C(=O)N(C)[C@@H]([C@H](C)CCC(=O)N2CCOCC2)C(=O)N[C@@H](C(C)C)C(=O)N(C)[C@@H](CC(C)C)C(=O)N[C@@H](C)C(=O)N[C@H](C)C(=O)N(C)[C@@H](CC(C)C)C(=O)N(C)[C@@H](CC(C)C)C(=O)N(C)[C@@H](C(C)C)C(=O)N1C [Compound 2.14.4] (cyclo(A[dA][NMeL][NMeL][NMeV][MeBmt][Abu][dNMeA][X52]V[NMeL]))
IC50: 4.8 µM

Compound: C/C=C/C[C@@H](C)[C@@H](O)[C@H]1C(=O)N[C@@H](CC)C(=O)N(C)[C@H](C)C(=O)N(C)[C@@H]([C@H](C)COCCOC(=O)N2CCN(C)CC2)C(=O)N[C@@H](C(C)C)C(=O)N(C)[C@@H](CC(C)C)C(=O)N[C@@H](C)C(=O)N[C@H](C)C(=O)N(C)[C@@H](CC(C)C)C(=O)N(C)[C@@H](CC(C)C)C(=O)N(C)[C@@H](C(C)C)C(=O)N1C (stereo in doubt)
IC50: 8.7 µM

Compound: C/C=C/C[C@@H](C)[C@@H](O)[C@H]1C(=O)N[C@@H](CC)C(=O)N(C)[C@H](C)C(=O)N(C)[C@@H]([C@H](C)COCCN(C)CC(F)(F)F)C(=O)N[C@@H](C(C)C)C(=O)N(C)[C@@H](CC(C)C)C(=O)N[C@@H](C)C(=O)N[C@H](C)C(=O)N(C)[C@@H](CC(C)C)C(=O)N(C)[C@@H](CC(C)C)C(=O)N(C)[C@@H](C(C)C)C(=O)N1C [Compound 2.8.3] (cyclo(A[dA][NMeL][NMeL][NMeV][MeBmt][Abu][dNMeA][X36]V[NMeL]))
IC50: 1.9 µM

Compound: C/C=C/C[C@@H](C)[C@@H](O)[C@H]1C(=O)N[C@@H](CC)C(=O)N(C)[C@H](C)C(=O)N(C)[C@@H]([C@H](C)CN2CCN(S(C)(=O)=O)CC2)C(=O)N[C@@H](C(C)C)C(=O)N(C)[C@@H](CC(C)C)C(=O)N[C@@H](C)C(=O)N[C@H](C)C(=O)N(C)[C@@H](CC(C)C)C(=O)N(C)[C@@H](CC(C)C)C(=O)N(C)[C@@H](C(C)C)C(=O)N1C [Compound 2.5.5] (cyclo(A[dA][NMeL][NMeL][NMeV][MeBmt][Abu][dNMeA][X16]V[NMeL]))
IC50: 4.8 µM

Compound: C/C=C/C[C@@H](C)[C@@H](O)[C@H]1C(=O)N[C@@H](CC)C(=O)N(C)[C@H](C)C(=O)N(C)[C@@H]([C@H](C)CN2CCNC(=O)C2)C(=O)N[C@@H](C(C)C)C(=O)N(C)[C@@H](CC(C)C)C(=O)N[C@@H](C)C(=O)N[C@H](C)C(=O)N(C)[C@@H](CC(C)C)C(=O)N(C)[C@@H](CC(C)C)C(=O)N(C)[C@@H](C(C)C)C(=O)N1C [Compound 2.5.30] (cyclo(A[dA][NMeL][NMeL][NMeV][MeBmt][Abu][dNMeA][X50]V[NMeL]))
IC50: 2.1 µM

Compound: C/C=C/C[C@@H](C)[C@@H](O)[C@H]1C(=O)N[C@@H](CC)C(=O)N(C)[C@H](C)C(=O)N(C)[C@@H]([C@@H](C)COC(=O)N2CCN(CC)CC2)C(=O)N[C@@H](C(C)C)C(=O)N(C)[C@@H](CC(C)C)C(=O)N[C@@H](C)C(=O)N[C@H](C)C(=O)N(C)[C@@H](CC(C)C)C(=O)N(C)[C@@H](CC(C)C)C(=O)N(C)[C@@H](C(C)C)C(=O)N1C [Compound 2.17.14] (cyclo(A[dA][NMeL][NMeL][NMeV][MeBmt][Abu][dNMeA][X28]V[NMeL]))
IC50: 2.2 µM
